Attribution: PubChem BioAssay

target: Focal adhesion kinase 1 (Homo sapiens) (UniProt Q05397); test: small-molecule microarray binders of FAK, primary screen, biochemical, 635/667 nm fluorescence, BSA, DTT (AID 1130); conditions: PTK2 binding, 635 nm fluorescence, higher = more signal;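 further: composite of spot emission at 667 nm and signal to noise over triplicate slides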
Sequence (Q05397 whole entry, looked up): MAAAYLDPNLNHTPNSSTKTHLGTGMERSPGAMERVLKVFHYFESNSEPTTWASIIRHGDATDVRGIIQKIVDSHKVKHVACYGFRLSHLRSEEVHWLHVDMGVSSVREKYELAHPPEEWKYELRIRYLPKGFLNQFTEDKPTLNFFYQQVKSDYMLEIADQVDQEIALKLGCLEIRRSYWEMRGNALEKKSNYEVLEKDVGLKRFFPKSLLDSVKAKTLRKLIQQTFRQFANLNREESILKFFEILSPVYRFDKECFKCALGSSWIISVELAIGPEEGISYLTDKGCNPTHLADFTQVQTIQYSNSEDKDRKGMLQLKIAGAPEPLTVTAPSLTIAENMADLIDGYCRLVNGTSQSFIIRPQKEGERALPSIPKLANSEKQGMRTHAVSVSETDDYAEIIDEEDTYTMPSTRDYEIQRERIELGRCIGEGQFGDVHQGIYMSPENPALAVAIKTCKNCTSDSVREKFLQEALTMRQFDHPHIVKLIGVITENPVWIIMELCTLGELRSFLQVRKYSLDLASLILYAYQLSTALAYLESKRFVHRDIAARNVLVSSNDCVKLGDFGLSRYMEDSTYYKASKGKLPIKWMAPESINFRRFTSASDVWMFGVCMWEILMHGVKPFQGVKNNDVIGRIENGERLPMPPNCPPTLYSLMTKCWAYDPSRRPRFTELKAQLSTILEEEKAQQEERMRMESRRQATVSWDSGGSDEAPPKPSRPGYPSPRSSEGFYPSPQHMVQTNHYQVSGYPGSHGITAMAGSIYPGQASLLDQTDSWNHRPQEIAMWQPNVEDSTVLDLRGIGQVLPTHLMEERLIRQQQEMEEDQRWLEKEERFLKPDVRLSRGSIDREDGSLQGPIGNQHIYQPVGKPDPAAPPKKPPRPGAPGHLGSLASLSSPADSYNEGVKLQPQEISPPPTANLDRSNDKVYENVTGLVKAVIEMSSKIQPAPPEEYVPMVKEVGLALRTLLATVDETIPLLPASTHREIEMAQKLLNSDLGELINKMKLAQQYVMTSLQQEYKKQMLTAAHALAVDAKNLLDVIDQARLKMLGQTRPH
Definition: the class of an entry is the range in bin 1 (below -0.1), bin 2 (-0.1 to below 0.2), bin 3 (0.2 or more) that contains its composite z-score.

input: Which category fits this record: CC(C)(C)N1C(=O)[C@H]2[C@H]3[C@H](O)[C@H](O)CC(=O)[C@H]3CC[C@H]2C1=O
output: bin 1

input: Which category fits this record: CC(CCC(=O)OC[C@H]1O[C@H](C#Cc2ccccc2)C=C[C@@H]1Oc1ccc(C)cc1)=NO[C@H](C)c1cn([C@H](CO)Cc2ccccc2)nn1
output: bin 3

input: Which category fits this record: CC(C)CON=C1C[C@@H](O)[C@@H](O)[C@@H]2[C@@H]3C(=O)N(c4cccc(Oc5ccccc5)c4)C(=O)[C@@H]3CC[C@@H]12
output: bin 2

input: Which category fits this record: O=C1C=C[C@@H](O)[C@@H]2[C@@H]3C(=O)N(C[C@@H]4CCCO4)C(=O)[C@@H]3CC[C@@H]12
output: bin 2

Next:
input: Which category fits this record: CC(C)=NO[C@H](C)c1cn([C@H](CO)Cc2ccccc2)nn1
output: bin 3

input: Which category fits this record: O=C(NN=C1C[C@@H](O)[C@@H](O)[C@@H]2[C@@H]3C(=O)N(Cc4ccccc4)C(=O)[C@@H]3CC[C@@H]12)OCc1ccccc1
output: bin 2

input: Which category fits this record: CO[C@H]1COC(=O)CC=C[C@H](C)COC(=O)[C@@H](C)NC(=O)CC=C[C@@H]1C
output: bin 1

input: Which category fits this record: CCOC(=O)[C@H](CC(C)C)NC(=O)CCC1CC(OC(=O)NCc2cccc3ccccc23)CC2(CCCC(COC(=O)NCCc3ccc(Cl)cc3)O2)O1 (stereo not given in full)
output: bin 3

input: Which category fits this record: CC(CCN1CCCc2nc(C)c(C)cc21)=NO[C@@H](C)c1cc(-c2c(C)cc(C)cc2C)no1
output: bin 3

input: Which category fits this record: CCN1C(=O)[C@H]2[C@H]3[C@H](O)[C@H](O)CC(=NOC[C@H]4O[C@H](c5ccccc5)C=C[C@@H]4Oc4ccc(OC)cc4)[C@@H]3CC[C@H]2C1=O
output: bin 1

input: Which category fits this record: O=C1[C@H]2[C@H]3[C@H](O)[C@H](O)CC(=NOCc4ccccc4)[C@@H]3CC[C@H]2C(=O)N1c1ccc(F)cc1F
output: bin 3

input: Which category fits this record: COC(=O)C1=C(C)N(Cc2ccccc2)[C@]23O[C@](C(=O)OC)(C(=O)N2[C@@H]1c1ccccc1)C(C(=O)OC)=C3C(=O)OC
output: bin 2

input: Which category fits this record: C[n+]1ccc(-c2ccc(CO)cc2)cc1
output: bin 1

input: Which category fits this record: O=C1C2=CC[C@H]3C(=O)N(c4cccc(Oc5ccccc5)c4)C(=O)[C@H]3[C@H]2[C@H](O)[C@@H]2O[C@H]12
output: bin 2

input: Which category fits this record: CCCCC#C[C@@H]1C=C[C@H](Oc2cc(OC)c(OC)c(OC)c2)[C@@H](COC(=O)OCC)O1
output: bin 1
